Every entry's value here was drawn from ChEMBL document CHEMBL4680235.

- Target under test: Epidermal growth factor receptor (Homo sapiens)
- Sequence (P00533 whole entry): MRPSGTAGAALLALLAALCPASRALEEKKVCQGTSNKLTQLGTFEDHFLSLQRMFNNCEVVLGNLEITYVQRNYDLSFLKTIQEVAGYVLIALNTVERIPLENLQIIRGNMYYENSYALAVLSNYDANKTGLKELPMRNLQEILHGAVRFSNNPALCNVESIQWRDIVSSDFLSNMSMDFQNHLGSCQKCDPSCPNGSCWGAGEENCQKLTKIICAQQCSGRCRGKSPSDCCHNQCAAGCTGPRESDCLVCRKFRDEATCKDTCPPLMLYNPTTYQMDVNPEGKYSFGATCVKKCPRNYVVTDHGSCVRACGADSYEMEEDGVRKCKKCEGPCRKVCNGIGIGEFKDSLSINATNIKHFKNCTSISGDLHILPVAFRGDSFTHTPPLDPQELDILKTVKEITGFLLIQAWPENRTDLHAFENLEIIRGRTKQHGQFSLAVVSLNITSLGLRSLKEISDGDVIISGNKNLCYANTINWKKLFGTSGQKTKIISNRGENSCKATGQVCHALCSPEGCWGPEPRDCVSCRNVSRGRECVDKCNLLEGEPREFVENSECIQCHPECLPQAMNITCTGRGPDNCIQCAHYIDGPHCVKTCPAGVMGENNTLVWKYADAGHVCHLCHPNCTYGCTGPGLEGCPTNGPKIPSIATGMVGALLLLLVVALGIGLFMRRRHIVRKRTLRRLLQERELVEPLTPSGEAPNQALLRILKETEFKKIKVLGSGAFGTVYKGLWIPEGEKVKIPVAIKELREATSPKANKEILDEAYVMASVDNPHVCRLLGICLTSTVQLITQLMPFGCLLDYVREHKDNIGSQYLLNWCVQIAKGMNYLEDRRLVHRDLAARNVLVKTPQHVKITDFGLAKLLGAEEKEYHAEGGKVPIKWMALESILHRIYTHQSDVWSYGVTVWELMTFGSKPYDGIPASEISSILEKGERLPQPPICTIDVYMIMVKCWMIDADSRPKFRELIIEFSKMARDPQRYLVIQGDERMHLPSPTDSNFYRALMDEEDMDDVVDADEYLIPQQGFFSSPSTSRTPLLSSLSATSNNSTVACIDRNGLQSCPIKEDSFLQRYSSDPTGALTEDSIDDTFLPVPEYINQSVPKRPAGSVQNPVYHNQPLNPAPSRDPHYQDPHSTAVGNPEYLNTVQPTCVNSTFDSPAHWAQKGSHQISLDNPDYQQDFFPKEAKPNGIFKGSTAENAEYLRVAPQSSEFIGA
Measure name: IC50

(Q) Find IC50 (Epidermal growth factor receptor (Homo sapiens)) for the entry COc1cc2nccc(Oc3ccc(NC(=O)C(OC(=O)c4ccc(F)cc4)C(C)(C)C)cc3F)c2cc1OC (racemic)
(A) > 10 µM

* * *

- Target under test: Hepatocyte growth factor receptor (Homo sapiens, UniProt P08581)
- Sequence (P08581 whole entry): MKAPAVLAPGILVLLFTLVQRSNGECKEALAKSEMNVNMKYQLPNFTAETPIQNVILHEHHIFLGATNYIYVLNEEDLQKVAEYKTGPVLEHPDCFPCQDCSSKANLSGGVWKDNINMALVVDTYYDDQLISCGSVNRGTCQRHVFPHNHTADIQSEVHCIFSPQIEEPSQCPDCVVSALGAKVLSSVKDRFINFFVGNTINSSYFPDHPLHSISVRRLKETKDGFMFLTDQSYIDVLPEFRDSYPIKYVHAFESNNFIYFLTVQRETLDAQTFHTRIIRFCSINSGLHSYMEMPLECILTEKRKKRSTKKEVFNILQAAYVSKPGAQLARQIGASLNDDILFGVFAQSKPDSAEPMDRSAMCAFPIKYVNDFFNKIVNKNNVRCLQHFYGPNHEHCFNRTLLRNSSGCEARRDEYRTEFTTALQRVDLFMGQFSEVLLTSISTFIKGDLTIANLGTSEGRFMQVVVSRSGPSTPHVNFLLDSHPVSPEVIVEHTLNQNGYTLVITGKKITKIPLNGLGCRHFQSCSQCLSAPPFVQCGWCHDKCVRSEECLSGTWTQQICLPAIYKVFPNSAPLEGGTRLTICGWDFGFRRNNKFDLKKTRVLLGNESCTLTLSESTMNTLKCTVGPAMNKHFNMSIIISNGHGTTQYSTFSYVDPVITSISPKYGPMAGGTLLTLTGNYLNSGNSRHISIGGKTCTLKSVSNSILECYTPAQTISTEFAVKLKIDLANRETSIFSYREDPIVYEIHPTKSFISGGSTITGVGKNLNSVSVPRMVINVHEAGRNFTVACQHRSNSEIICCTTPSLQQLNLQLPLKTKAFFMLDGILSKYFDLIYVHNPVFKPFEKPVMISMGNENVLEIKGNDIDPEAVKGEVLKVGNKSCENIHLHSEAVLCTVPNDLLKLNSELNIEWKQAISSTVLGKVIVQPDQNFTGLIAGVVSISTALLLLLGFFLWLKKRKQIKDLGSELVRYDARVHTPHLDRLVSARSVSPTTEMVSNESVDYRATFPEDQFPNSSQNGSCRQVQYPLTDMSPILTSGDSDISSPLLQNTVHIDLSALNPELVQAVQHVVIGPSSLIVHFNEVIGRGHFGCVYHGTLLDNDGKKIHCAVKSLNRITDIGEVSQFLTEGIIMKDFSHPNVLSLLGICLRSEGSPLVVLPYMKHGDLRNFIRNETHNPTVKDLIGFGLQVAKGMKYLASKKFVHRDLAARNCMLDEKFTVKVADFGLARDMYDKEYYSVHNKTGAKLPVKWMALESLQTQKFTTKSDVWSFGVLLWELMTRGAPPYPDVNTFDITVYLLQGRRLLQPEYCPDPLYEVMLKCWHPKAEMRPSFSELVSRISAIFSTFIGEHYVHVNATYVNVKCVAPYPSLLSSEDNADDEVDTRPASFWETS
Measure name: IC50 (nM)
Form entry: value (nM) — number only.

(Q) Find IC50 (Hepatocyte growth factor receptor (Homo sapiens, UniProt P08581)) for the entry COc1cc2nccc(Oc3ccc(NC(=O)[C@@H](OC(=O)c4ccc(F)cc4)C(C)(C)C)cc3F)c2cc1OC
(A) 2.49

* * *

# pIC50 values compiled below
- System: MDA-MB-231
- Test description: Antiproliferative activity against human MDA-MB-231 cells assessed as reduction in cell viability measured after 72 hrs by MTT assay
- Study conditions: MDA-MB-231, 72 h
Lab note: report pIC50 as minus log10 of the concentration in molar units, number only.

# count of solved cases: 5
compound="COc1cc2nccc(Oc3ccc(NC(=O)C(OC(=O)c4ccc(F)cc4)C(C)(C)C)cc3F)c2cc1OC (racemic)" measure_name=pIC50 numeric_result=6.38
compound="COc1cc2nccc(Oc3ccc(NC(=O)C(OC(=O)c4ccc(Cl)cc4)C(C)(C)C)cc3F)c2cc1OC (configuration not stated)" measure_name=pIC50 numeric_result=6.32
compound="COc1cc2nccc(Oc3ccc(NC(=O)C(N(C(=O)c4ccc(F)cc4)c4ccc(F)cc4)C(C)(C)C)cc3F)c2cc1OC (configuration not stated)" measure_name=pIC50 numeric_result=4.83
compound="COc1cc2nccc(Oc3ccc(NC(=O)C(N(C(=O)c4ccc(F)cc4)C4CCCCC4)C(C)(C)C)cc3F)c2cc1OC (configuration not stated)" measure_name=pIC50 numeric_result=5.07
compound="COc1cc2nccc(Oc3ccc(NC(=O)C(OC(=O)C4CCCC4)C(C)(C)C)cc3F)c2cc1OC (configuration not stated)" measure_name=pIC50 numeric_result=4.85

(Q) Bench note: what pIC50 did COc1cc2nccc(Oc3ccc(NC(=O)C(OC(=O)c4ccccc4)C(C)(C)C)cc3F)c2cc1OC (configuration not stated) show?
(A) 6.19

(Q) Bench note: what pIC50 did COc1cc2nccc(Oc3ccc(NC(=O)C(C)OC(=O)c4cccs4)cc3F)c2cc1OC (configuration not stated) show?
(A) 5.08

(Q) Bench note: what pIC50 did COc1cc2nccc(Oc3ccc(NC(=O)C(N(C(=O)c4ccc(F)cc4)c4ccccc4)C(C)(C)C)cc3F)c2cc1OC (configuration not stated) show?
(A) 4.85

* * *

# IC50 values compiled below
- Test system: MDA-MB-231
- Test description: Antiproliferative activity against human MDA-MB-231 cells assessed as reduction in cell viability measured after 72 hrs by MTT assay
- Study conditions: MDA-MB-231, 72 h
Form entry: value (µM) — number only.

# count of solved cases: 3
molecule="COc1cc2nccc(Oc3ccc(NC(=O)C(OC(=O)c4ccc5ccccc5c4)C(C)(C)C)cc3F)c2cc1OC (centres undefined)" numeric_result=6.75
molecule="COc1cc2nccc(Oc3ccc(NC(=O)C(OC(=O)c4ccccc4)C4CCCCC4)cc3F)c2cc1OC (centres undefined)" numeric_result=17.9
molecule="COc1cc2nccc(Oc3ccc(NC(=O)C(NC(=O)c4ccc(F)cc4)C(C)(C)C)cc3F)c2cc1OC (centres undefined)" numeric_result=0.96

(Q) Bench note: what IC50 did CCCC(OC(=O)c1ccccc1)C(=O)Nc1ccc(Oc2ccnc3cc(OC)c(OC)cc23)c(F)c1 (centres undefined) show?
(A) 2.48

(Q) Bench note: what IC50 did COc1cc2nccc(Oc3ccc(NC(=O)C(OC(=O)c4cccc(F)c4)C(C)(C)C)cc3F)c2cc1OC (centres undefined) show?
(A) 0.49

(Q) Bench note: what IC50 did COc1cc2nccc(Oc3ccc(NC(=O)C(OC(=O)c4cccc(Cl)c4)C(C)(C)C)cc3F)c2cc1OC (centres undefined) show?
(A) 0.86

(Q) Bench note: what IC50 did CCCCN(C(=O)c1ccc(F)cc1)C(C(=O)Nc1ccc(Oc2ccnc3cc(OC)c(OC)cc23)c(F)c1)C(C)(C)C (centres undefined) show?
(A) 0.86

(Q) Bench note: what IC50 did COc1cc2nccc(Oc3ccc(NC(=O)C(C)OC(=O)c4ccc5ccccc5c4)cc3F)c2cc1OC (centres undefined) show?
(A) 13.3

(Q) Bench note: what IC50 did COc1cc2nccc(Oc3ccc(NC(=O)C(OC(=O)c4cccs4)C(C)(C)C)cc3F)c2cc1OC (centres undefined) show?
(A) 1.89
